All values here come from PubChem BioAssay AID1918956.

System: OVCAR-5 complex spheroids, viability
test protocol: Anticancer human tumor OVCAR-5 cell line growth inhibition;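 also: spheroids exposed to agents for seven days; 100% = DMSO vehicle control wells viability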
experimental context: second compound 10 µM; first compound 0.01 µM; stronger effect = lower value
Assign viability, T/C to each entry below.
Give bare numbers, in %.

Example entries and their recorded answers appear below.
{"molecule": "CC(C)CC(NC(=O)C(Cc1ccccc1)NC(=O)c1cnccn1)B(O)O (configuration not stated) + NC1CCC(NC2CC2c2ccccc2)CC1", "measurement target": "OVCAR-5 complex spheroids, viability", "viability, T/C / %": 35.1}
{"molecule": "O=C(C=Cn1cnc(-c2cc(C(F)(F)F)cc(C(F)(F)F)c2)n1)NNc1cnccn1 + NC1CCC(NC2CC2c2ccccc2)CC1", "measurement target": "OVCAR-5 complex spheroids, viability", "viability, T/C / %": 84.7}
{"molecule": "CC(C)CC(NC(=O)CNC(=O)c1cc(Cl)ccc1Cl)B1OC(=O)CC(CC(=O)O)(C(=O)O)O1 (configuration not stated) + NC1CCC(NC2CC2c2ccccc2)CC1", "measurement target": "OVCAR-5 complex spheroids, viability", "viability, T/C / %": 86.7}
{"molecule": "COc1cc(Nc2ncc3c(n2)-c2ccc(Cl)cc2C(c2c(F)cccc2OC)=NC3)ccc1C(=O)O + NC1CCC(NC2CC2c2ccccc2)CC1", "measurement target": "OVCAR-5 complex spheroids, viability", "viability, T/C / %": 78.7}
{"molecule": "O=C(C=Cn1cnc(-c2cc(C(F)(F)F)cc(C(F)(F)F)c2)n1)NNc1cnccn1 + NC1CC1c1ccc(-c2cccc(O)c2)cc1", "measurement target": "OVCAR-5 complex spheroids, viability", "viability, T/C / %": 60.8}

Would you mind listing viability, T/C for each of the following molecules?
1. CC(C)CC(NC(=O)CNC(=O)c1cc(Cl)ccc1Cl)B1OC(=O)CC(CC(=O)O)(C(=O)O)O1 (configuration not stated) + NC1CC1c1ccc(-c2cccc(O)c2)cc1
2. COc1cc(Nc2ncc3c(n2)-c2ccc(Cl)cc2C(c2c(F)cccc2OC)=NC3)ccc1C(=O)O + NC1CC1c1ccc(-c2cccc(O)c2)cc1

A.
70.3
72
